Test: Confirmation screen for delayed death inhibitors of the malarial parasite plastid, 96 hour incubation; further: nearly all actives have a fitted effect of over 60% in size
Conditions: P. falciparum luciferase growth in erythrocytes; series mostly up to 28.7 µM
In all, about 2,300 compounds went through this assay and about 1,400 (61%) were called active. About 29% were inconclusive and are not listed. The call rests on the fitted dose curve; in most records, active means well fitted inhibition curve with a large enough effect; inconclusive means small, poorly fitted or top-dose-only effect, or effect the other way; inactive means no such curve, though single readings can be large or run the other way. So high a share suggests a set chosen from earlier hits. The list shows a part of the results.
// classify into active, inactive

INPUT: How was CNC(=S)N(CCc1c(C)[nH]c2ccc(C)cc12)Cc1cc(OC)c(OC)c(OC)c1 classified in this test?
OUTPUT: active

INPUT: Same thing, different compound: O=C(CCN1C(=O)C2CC=C(Cl)CC2C1=O)NCc1ccccc1 (configuration not stated)
OUTPUT: inactive

INPUT: Request: CCN(CC(=O)Nc1c(F)cccc1F)C(=O)c1ccc(S(=O)(=O)NCc2ccco2)cc1
OUTPUT: inactive

INPUT: Entry COc1cc(CNC(=O)CCn2nc(C)c3c(C)n(-c4ccccc4)nc3c2=O)cc(OC)c1OC please
OUTPUT: active

INPUT: Try this compound next: COc1ccc(CCC(C)N2CCC(Oc3ccc(C(=O)N4CCCC4)cc3)CC2)cc1 (configuration not stated)
OUTPUT: active

INPUT: Next record, please: CNC(=S)N(CCc1c(C)[nH]c2ccc(Cl)cc12)Cc1cccnc1
OUTPUT: active

INPUT: One more compound: CCOC(=O)C(CC)(CC)C(=O)/C=C/c1ccc(Br)cc1
OUTPUT: active

INPUT: And what about the compound O=C(/C=C/c1ccccc1O)c1ccco1 ?
OUTPUT: inactive

INPUT: For CCOC(=O)C(=Cc1ccccc1OC)C(=O)OCC then?
OUTPUT: active

INPUT: Consider next the compound CN(C)c1cc[n+](CC(=O)Nc2ccc(OC(F)F)cc2)cc1 in the same way.
OUTPUT: active

INPUT: Thanks! And Cc1nn(CCC(=O)NCc2ccc(N(C)C)cc2)c(=O)c2nn(-c3ccccc3)c(C)c12 ?
OUTPUT: active

INPUT: Also need COc1ccc(OC)c(CCNC(=O)CCn2nc(C)c3c(C)n(-c4ccccc4)nc3c2=O)c1 , thanks.
OUTPUT: active

INPUT: What do you get for COc1ccccc1/C=C/C(=O)/C=C/c1ccccc1O ?
OUTPUT: active

INPUT: And the next one, O=C(Nc1ccc(S(=O)(=O)NCc2ccco2)cc1)c1ccc2ccccc2n1 ?
OUTPUT: active

INPUT: Again, but for N=C1S/C(=C\c2ccco2)C(=O)N1c1nccs1
OUTPUT: active

INPUT: Then what about the compound CCOc1ccc(NC(=O)C[n+]2ccc(N(C)C)cc2)cc1 ?
OUTPUT: active

INPUT: How about O=S(=O)(c1ccc(F)cc1)N1CCc2ccccc2C1 ?
OUTPUT: active

INPUT: Thanks! And COc1ccccc1CNC(=O)CCCn1nc(C)c2c(C)n(-c3ccccc3)nc2c1=O ?
OUTPUT: active

INPUT: Then what about the compound CCOc1ccccc1OCCC(=O)N1CCN(S(=O)(=O)c2ccccc2[N+](=O)[O-])CC1 ?
OUTPUT: active

INPUT: Can you handle COc1ccccc1/C=C/C(=O)c1ccccc1 next?
OUTPUT: active

INPUT: Let us now turn to CC(C)Cc1ccc(C(=O)Nc2ccc(Cc3ccncc3)cc2)o1
OUTPUT: active

INPUT: Another: O=S(=O)(c1ccc(OCc2ccc(Br)cc2)cc1)N1CCOCC1
OUTPUT: active
